Assay: BBB-specific parallel artificial membrane permeability assay (PAMPA-BBB)
Format: in vitro ADME, porcine
Details: pig, pH 7.4, 37° C., Pe in cm/s, read-out: BBB permeability log Pe (converted)
Description: BBB permeability was estimated using a BBB-specific parallel artificial membrane permeability assay (PAMPA-BBB). […] After the incubation, PAMPA sandwich plates were separated and compound concentrations in donor (CD(t)) and acceptor (CA(t)) solutions were determined by UPLC-MS (Waters, Milford, US). The concentration of the donor solution at zero time point (CD(0)) was determined using the supernatant after centrifugation.
MEASURE_NAME: Papp at 4 h, 100 μM

compound="OCCOCCN1CCN(C2=Nc3ccccc3Sc3ccc(Cl)cc32)CC1 [Compound 7]" result="53.7 ×10⁻⁶ cm/s"
compound="CN1CCCN(C2=Nc3ccccc3Oc3ccc(C(F)(F)F)cc32)CC1 [Compound 3]" result="38 ×10⁻⁶ cm/s"
compound="O=C(O)COCCN1CCN(C2=Nc3ccccc3Oc3ccc(Cl)cc32)CC1 [Compound 6]" result="24.5 ×10⁻⁶ cm/s"
compound="OCCN1CCN(C2=Nc3ccccc3Oc3ccc(Cl)cc32)CC1 [Compound 5]" result="39.8 ×10⁻⁶ cm/s"
compound="CN1CCN(C2=Nc3ccccc3Oc3ccc(C(F)(F)F)cc32)CC1 [Compound 2]" result="26.3 ×10⁻⁶ cm/s"
compound="CN1CCN(C2=Nc3cc(F)ccc3Oc3ccc(C(F)(F)F)cc32)CC1 [Compound 4]" result="21.4 ×10⁻⁶ cm/s"

# per-item lookup of Papp at 4 h, 100 μM; items listed below
1. O=C(O)COCCN1CCN(C2=Nc3ccccc3Oc3ccc(C(F)(F)F)cc32)CC1 [Compound 8]
2. O=C(O)COCCN1CCCN(C2=Nc3ccccc3Oc3ccc(C(F)(F)F)cc32)CC1 [Compound 9]

Found:
["26.3 ×10⁻⁶ cm/s", "35.5 ×10⁻⁶ cm/s"]
